efficacy (α) S1P1 reference
# SYSTEM UNDER TEST: S1P1 receptor (Homo sapiens, UniProt P21453)
# Sequence (P21453 whole entry): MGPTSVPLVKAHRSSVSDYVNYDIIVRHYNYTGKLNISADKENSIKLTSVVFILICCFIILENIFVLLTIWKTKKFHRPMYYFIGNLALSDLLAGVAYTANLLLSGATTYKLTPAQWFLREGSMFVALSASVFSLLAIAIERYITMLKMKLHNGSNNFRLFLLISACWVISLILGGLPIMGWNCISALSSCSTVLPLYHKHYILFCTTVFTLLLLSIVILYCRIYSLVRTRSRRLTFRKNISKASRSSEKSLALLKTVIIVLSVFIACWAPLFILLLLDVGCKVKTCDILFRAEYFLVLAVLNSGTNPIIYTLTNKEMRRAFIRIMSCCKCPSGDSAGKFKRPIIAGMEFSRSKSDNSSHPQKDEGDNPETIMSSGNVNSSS
# EXPERIMENT DESCRIPTION: cAMP accumulation assay at the S1P1 receptor (Lance cAMP 384 kit)
# Assay type: cell-based
# CONDITION PARAMETERS: S1P = 1.00, N.D. = not defined because the potency and/or the efficacy were too low
Reply: number alone, nothing else.

Answered examples (3):
[[record]]
molecule = "Nc1sc2c(c1C(=O)c1cccc(Cl)c1)CCCC2"
meas_value = 0.40

[[record]]
molecule = "CCCCCCCCCCCCC/C=C/[C@@H](O)[C@@H](N)COP(=O)(O)O [S1P, sphingosine-1-phosphate]"
meas_value = 1.00

[[record]]
molecule = "Nc1sc2c(c1C(=O)c1ccccc1Cl)CCCC2"
meas_value = 0.63


In the following, a different molecule is considered.
Log: S1P1 receptor (Homo sapiens, UniProt P21453), molecule Nc1sc2c(c1C(=O)c1cccc(I)c1)CCCC2 , efficacy (α) S1P1 = 0.46

---

log10(EC50) reference
# SYSTEM UNDER TEST: S1P3 receptor (Homo sapiens)
# EXPERIMENT DESCRIPTION: cAMP accumulation assay at the S1P3 receptor (Lance cAMP 384 kit)
# Assay type: cell-based
# CONDITION PARAMETERS: N.D. = not defined because the potency and/or the efficacy were too low, read-out: pEC50 S1P3 (converted)
Please interpret these as log10 of EC50 where EC50 is in nM.

Answered examples (3):
[[record]]
compound = "Nc1sc2c(c1C(=O)c1cccc(I)c1)CCCC2 [LUF5533]"
endpoint_name = "log10(EC50)"
meas_value = 3.10

[[record]]
compound = "Nc1sc2c(c1C(=O)c1ccc(Cl)cc1)CCCC2 [LUF5480]"
endpoint_name = "log10(EC50)"
meas_value = 3.83

[[record]]
compound = "Cc1ccc(C(=O)c2c(N)sc3c2CCCC3)cc1 [LUF5527]"
endpoint_name = "log10(EC50)"
meas_value = 3.49


log10(EC50) in this record for Nc1sc2c(c1C(=O)c1ccc(Br)cc1)CCCC2 [LUF5490] : 3.06

log10(EC50) in this record for Nc1sc2c(c1C(=O)c1ccccc1Cl)CCCC2 [LUF5532] : 3.62

log10(EC50) in this record for Nc1sc2c(c1C(=O)c1cccc(C(F)(F)F)c1)CCCC2 [LUF5469] : 3.11

---

# SYSTEM UNDER TEST: S1P3 receptor (Homo sapiens, UniProt Q99500)
# Sequence (Q99500 whole entry): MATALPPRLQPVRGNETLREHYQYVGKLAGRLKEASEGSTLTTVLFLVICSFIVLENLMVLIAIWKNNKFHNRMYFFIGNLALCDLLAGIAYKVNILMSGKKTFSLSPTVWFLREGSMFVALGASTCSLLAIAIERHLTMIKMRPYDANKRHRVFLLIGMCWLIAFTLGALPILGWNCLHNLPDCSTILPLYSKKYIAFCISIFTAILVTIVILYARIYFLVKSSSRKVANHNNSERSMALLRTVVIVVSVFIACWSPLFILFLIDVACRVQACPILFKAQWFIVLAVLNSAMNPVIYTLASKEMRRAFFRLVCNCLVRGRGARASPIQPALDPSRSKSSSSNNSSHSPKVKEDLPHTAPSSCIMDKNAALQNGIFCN
# EXPERIMENT DESCRIPTION: cAMP accumulation assay at the S1P3 receptor (Lance cAMP 384 kit)
# Assay type: cell-based
# CONDITION PARAMETERS: S1P = 1.00, N.D. = not defined because the potency and/or the efficacy were too low
ENDPOINT NAME: efficacy (α) S1P3
Reply: number alone, nothing else.

[[record]]
compound = "Nc1sc2c(c1C(=O)c1cccc(I)c1)CCCC2 [LUF5533]"
system_under_test = "S1P3 receptor (Homo sapiens, UniProt Q99500)"
endpoint_name = "efficacy (α) S1P3"
meas_value = 0.94

[[record]]
compound = "Nc1sc2c(c1C(=O)c1ccc(Cl)cc1)CCCC2 [LUF5480]"
system_under_test = "S1P3 receptor (Homo sapiens, UniProt Q99500)"
endpoint_name = "efficacy (α) S1P3"
meas_value = 0.37

[[record]]
compound = "Nc1sc2c(c1C(=O)c1cccc(Cl)c1)CCCC2 [LUF5473]"
system_under_test = "S1P3 receptor (Homo sapiens, UniProt Q99500)"
endpoint_name = "efficacy (α) S1P3"
meas_value = 1.07


In the following, a different compound is considered.
efficacy (α) S1P3 in this record for Nc1sc2c(c1C(=O)c1cccc(C(F)(F)F)c1)CCCC2 [LUF5469] : 1.07

Every entry's value here was drawn from patent US20100317709A1.
